Just for reference, patent US11795170B2 is where these values come from.

- target_or_system: isolated recombinant JAK2 kinase domain (Homo sapiens)
- Construct: The activity of the isolated recombinant JAK1 and JAK2 kinase domain was measured
- Sequence (O60674 849-1124): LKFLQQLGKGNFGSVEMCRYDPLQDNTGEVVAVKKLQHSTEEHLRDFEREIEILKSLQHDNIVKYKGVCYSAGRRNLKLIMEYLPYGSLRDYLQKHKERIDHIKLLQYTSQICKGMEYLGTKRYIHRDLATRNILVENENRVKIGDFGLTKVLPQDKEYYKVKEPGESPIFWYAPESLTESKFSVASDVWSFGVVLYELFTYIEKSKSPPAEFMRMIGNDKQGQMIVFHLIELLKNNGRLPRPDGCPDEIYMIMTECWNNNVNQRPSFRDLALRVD
- procedure_details: JAK2 enzyme assay (Caliper LabChip, peptide phosphorylation)
- study_conditions: 0.2 nM JAK2, 25 μM ATP, 22° C., 30 minutes; Morrison tight binding model
property_name: Ki (nM)
// note: answer is a bare numeric in nM

smiles_code: NCCn1cc(NC(=O)c2cnc3cccnn23)c(-c2cc(Cl)ccc2OC(F)F)n1
Ki, nM: 0.53

With isolated recombinant JAK2 kinase domain (Homo sapiens) as the test system, O=C(Nc1cn(CC(=O)N2CCN(CCN3CCOCC3)CC2)nc1-c1cc(Cl)ccc1OC(F)F)c1cnc2cccnn12 showed Ki of 2

The reported Ki value, isolated recombinant JAK2 kinase domain (Homo sapiens), for CSc1ccc(OC(F)F)c(-c2nn(CC(=O)N3CCC(CN4CCN(CC(=O)N(C)C)CC4)CC3)cc2NC(=O)c2cnc3cccnn23)c1 reads 0.69

The value of Ki recorded for O=C(Nc1c[nH]nc1-c1cc(Cl)ccc1OC(F)F)c1cnc2cccnn12 when tested on isolated recombinant JAK2 kinase domain (Homo sapiens) reads 0.063
